B1: PhoQ; a variant is named by its letters at X, in order, P23837 (parent)
chain: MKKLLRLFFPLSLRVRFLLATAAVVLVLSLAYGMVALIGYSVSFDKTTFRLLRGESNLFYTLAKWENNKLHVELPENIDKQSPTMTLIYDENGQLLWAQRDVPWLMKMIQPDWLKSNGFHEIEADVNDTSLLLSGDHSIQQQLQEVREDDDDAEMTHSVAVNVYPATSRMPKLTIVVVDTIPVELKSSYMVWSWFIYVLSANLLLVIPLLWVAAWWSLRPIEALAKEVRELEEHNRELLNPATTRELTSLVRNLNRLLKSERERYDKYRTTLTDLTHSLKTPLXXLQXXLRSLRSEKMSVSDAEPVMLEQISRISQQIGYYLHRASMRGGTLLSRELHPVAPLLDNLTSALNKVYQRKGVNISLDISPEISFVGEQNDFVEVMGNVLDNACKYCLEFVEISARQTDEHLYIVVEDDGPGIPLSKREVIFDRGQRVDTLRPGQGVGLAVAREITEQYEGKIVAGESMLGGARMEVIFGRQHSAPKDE

variants of: B1; test: enrichment ratio after two sorts for PhoP signalling (ratio (wild type AVST 3.29)); higher = more functional; settings: with PhoP (E. coli)
Whole data set: some 140,000 sequences, median “enrichment ratio after two sorts for PhoP signalling” near 0, cut for the highest 2% near 11. This is one part of a sample in which the highest values are shown more often than they occur.
Returns one of Fulfilled or Not fulfilled; Fulfilled when enrichment ratio is >= 10.

Some solved entries appear below for comparison.
FSSA	Not fulfilled
KCWH	Not fulfilled
YTTG	Not fulfilled

Tell me whether enrichment ratio is at least 10 here: `ITCG` Not fulfilled

Hi, just wondering whether `TKLL` shows enrichment ratio of 10 or higher. Fulfilled

Check this variant for enrichment ratio at or above 10: `AISI` Fulfilled
